Assignment: determine reported RP-LC retention time for the given molecules.
- ASSAY NAME: gradient 5% acetonitrile 3 min, to 50% in 2 min, to 85% in 15 min, held 3 min, 100 µL/min
- EXPERIMENTAL PARAMETERS: column: Zorbax Extend-C18 2.1 x 50 mm; eluents: water / acetonitrile, 0.1% formic acid
Field format: number, assumed s, no unit text.

## Task For the molecule Cc1ccc(S(=O)(=O)N2CC(=O)N(Cc3ccccc3)C(C)(C(=O)NCc3ccccc3)C2)cc1 (centres undefined) , what RP-LC retention time is on record?
## Result 1010

## Task Query: RP-LC retention time; subject: COCCn1cc(C(=O)Nc2cccc(C(C)=O)c2)c2nn(-c3ccccc3)c(=O)c-2c1
## Result 812

## Task Reported RP-LC retention time for CSc1ncccc1C(=O)NCC(O)c1ccsc1 (centres undefined) : what is it?
## Result 626

## Task // lookup RP-LC retention time for O=C(c1ccco1)N1CCCC(c2cc(-c3ccc(F)cc3)n[nH]2)C1 (centres undefined)
## Result 674

## Task Need RP-LC retention time of O=C(CN1C(=O)CCCc2cc(S(=O)(=O)N3CCCCC3)ccc21)Nc1ccc(F)c(Cl)c1 , thanks.
## Result 1000

## Task Requested field: RP-LC retention time. Item: O=C(C1CC1)N1CCCC1c1nc2ccccc2s1 (centres undefined)
## Result 768

## Task Look at this molecule and give its reported RP-LC retention time. COc1cccc(-n2c(=O)c(C(=O)Nc3ccc(F)cc3)c(O)c3cccnc32)c1
## Result 1210

## Task For the molecule shown here, CCC(=O)NCc1nc2c(n1C)CN(C(=O)c1ccc(Br)cc1)CC2 , give the reported RP-LC retention time.
## Result 605

## Task GET /values?readout=RP-LC retention time&item= CC1CCN(CCNC(=O)Cn2c(=O)n(-c3ccc(F)cc3)c3ncccc32)CC1
## Result 614

Source: the METLIN SMRT retention time set (Domingo-Almenara et al. 2019)
